Field: absorbance at 450 nm (OD450). Provide a value for each of the binders that follow.
Molecular target: T1, human histidine-rich glycoprotein (HRG), purified from human plasma (human, UniProt P04196 19-525)
T1 construct: also called human purified HRG; human purified HRG protein
T1 sequence: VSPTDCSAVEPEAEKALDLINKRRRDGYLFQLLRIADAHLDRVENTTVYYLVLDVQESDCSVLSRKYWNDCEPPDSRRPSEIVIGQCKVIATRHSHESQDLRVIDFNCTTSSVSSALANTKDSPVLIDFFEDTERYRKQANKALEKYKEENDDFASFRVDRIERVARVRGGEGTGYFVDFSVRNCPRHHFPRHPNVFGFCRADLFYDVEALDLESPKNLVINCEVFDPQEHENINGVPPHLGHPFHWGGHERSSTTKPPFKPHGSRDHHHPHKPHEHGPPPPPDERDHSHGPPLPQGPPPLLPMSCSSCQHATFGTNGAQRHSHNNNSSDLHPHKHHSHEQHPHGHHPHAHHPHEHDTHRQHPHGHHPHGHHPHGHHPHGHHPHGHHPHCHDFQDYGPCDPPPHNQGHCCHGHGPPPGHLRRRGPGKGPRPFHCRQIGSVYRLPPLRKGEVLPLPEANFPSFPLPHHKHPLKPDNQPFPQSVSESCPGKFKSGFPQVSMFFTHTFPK
Test: sandwich ELISA, HRG captured by solid phase 75-2D
Protocol: The capture antibody solution was dispensed at 25 μL per well into 384-well Maxisorp plates (NUNC), and the plates were incubated at room temperature for 3 hours. […] The results regarding the evaluation of combinations chosen from 21 types of anti-HRG monoclonal antibodies are shown in Table 1. […] The combinations of antibodies which could construct a sandwich ELISA system having enough level of absorbance change were 86 sets evaluated as ++ or +++ in Table 1.

q: // query absorbance at 450 nm (OD450) value for entry anti-HRG monoclonal antibody 50-6C-2A (antibody, V domains shown, Mouse hybridoma monoclonal) VH: EVQLQESGPGLVKPSQSLSLTCTVTGYSITSDYAWNWIRQFPGNKLEWMGYISYSGSTNYNPSLKSRISITRDTSKNQFFLQLNSVTTEDTATYYCASASYRYAWFAYWGQGTLVTVST VL: DIQMTQTTSSLSASLGDRVTISCRASQDISNYLNWYQQKPDGTVKLLIYYTSRLHSGVPSRFSGSGSGTDYSLTISNLEQEDIGTYFCQQGNTLPTFGGGTKLEIK
a: ≥ 3 od

q: Let us now turn to anti-HRG monoclonal antibody 67-8A-5F (antibody, V domains shown, Mouse hybridoma monoclonal) VH: EVQLQESGPGLVKPSQSLSLTCTVTGYSITSDYAWNWIRQFPGNKLEWMGYISYSGSTSYNPSLKSRISITRDTSKNQFFLQLNSVTTEDTATYYCASASYRYAWFAYWGQGTLVTVSA VL: DIQMTQTTSSLSASLGDRVTISCRASQDISNYLNWYQQKPDGTVKLLIYYTSRLLSGVPSRFSGSGSGTDYSLTISNLEQEDIATYFCQQGNTLPTFGGGTKLEIK
a: ≥ 3 od

q: Let us now turn to anti-HRG monoclonal antibody 65-3A (antibody, V domains shown, Mouse hybridoma monoclonal) VH: QVILKESGPGILQPSQTLSLTCSFSGFSLSTSGVGVSWIRQPSGKGLEWLAHIYWDDDKHYNPSLKSRLTISKDTSRNQVFLRITSVDTADTATYYCALGTVGGPWFPYWGQGTLVTVSA VL: DVQMNQSHKFMSTSVGDRVSITCKASQDVSTAVAWYQQKPGQSPKILIYWASIRHTGVPDRFTGSGSGTDYTLTISSVQAEDLTLYYCQQHYSTPWTFGGGTKLEIK
a: 2 to 3 od

q: Let us now turn to anti-HRG monoclonal antibody 6-12A-10B-9G (antibody, V domains shown, Mouse hybridoma monoclonal; biotin-labeled as detection antibody and for bead immobilisation) VH: EVQLQESGPGLVKPSQSLSLTCTVTGYSITSDYAWNWIRQFPGNKLEWMGYISYSGSTNYNPSLRSRISITRDTSKNQFFLQLISVTTEDTATYYCGSASYRYAWFAYWGQGTLVTVSA VL: DIQVTQTTSSLSASLGDRVTISCRASQDISNYLNWYQQKPDGTVKLLIYYTSRLHSGVPSRFSGSGSGTDYSLTISNLEQEDIATYFCQQGNTLPTFGGGTKLEIK
a: ≥ 3 od

q: Let us now turn to anti-HRG monoclonal antibody 69-1A (antibody, V domains shown, Mouse hybridoma monoclonal; also called clone No. 69-1A) VH: EVKLEESGGGLVQPGGSMKLSCAASGFTFSDAWMDWVRQSPEKGLEWVAEIRSKANNHGTYYAESVKGRFTISRDDSKSSVYLRMNSLSAEDTGIYYCTRPFAYWGQGTLVTVSA VL: DVVVTQTPLSLPVSLGDQASISCRSSQSLVHIDGNTYFHWYVQKPGQSPKLLIYKVSNRFSGVPDRFSGSGSGTDFTLKISRVEAEDLGVYFCSQSTHVPLTFGAGTKLELK
a: 2 to 3 od

Cited source: patent US20250258178A1
